system: NCI-H522; assay: relative viability (nuclei count vs DMSO), 5 days (fraction); higher = more cells survive; conditions: first compound 0.8 µM
The label true (1) is reserved for relative viability strictly under 0.8; false (0) covers values equal to or above it.

>>> label_value("COc1nc(C)cnc1NS(=O)(=O)c1cccnc1-c1ccc(-c2nnco2)cc1 [Zibotentan] + NC(=O)Nc1cc(-c2cccc(F)c2)sc1C(=O)N[C@H]1CCCNC1 [AZD7762] (partner 0.2 µM)")
"true (1)"
>>> label_value("O=c1cc(-c2cccc3c2Sc2ccccc2S3)oc(N2CCOCC2)c1 + COc1cccc2cc(-c3nc([C@H]4CC[C@H](C(=O)O)CC4)n4ncnc(N)c34)[nH]c12 [OSI-027] (partner 0.5 µM)")
"true (1)"
>>> label_value("COc1nc(C)cnc1NS(=O)(=O)c1cccnc1-c1ccc(-c2nnco2)cc1 [Zibotentan] + COc1cccc2cc(-c3nc([C@H]4CC[C@H](C(=O)O)CC4)n4ncnc(N)c34)[nH]c12 [OSI-027] (partner 0.5 µM)")
"true (1)"
>>> label_value("COc1nc(C)cnc1NS(=O)(=O)c1cccnc1-c1ccc(-c2nnco2)cc1 [Zibotentan] + CC(=O)c1c(C)c2cnc(Nc3ccc(N4CCNCC4)cn3)nc2n(C2CCCC2)c1=O [Palbociclib] (partner 0.5 µM)")
"false (0)"

Report whether reported relative viability is lower than 0.8 (strictly) for COc1nc(C)cnc1NS(=O)(=O)c1cccnc1-c1ccc(-c2nnco2)cc1 [Zibotentan] + Nc1nc2[nH]cc(CCc3ccc(C(=O)N[C@@H](CCC(=O)O)C(=O)O)cc3)c2c(=O)[nH]1 [Pemetrexed] (partner 0.2 µM)
false (0)

Report whether reported relative viability is lower than 0.8 (strictly) for COc1nc(C)cnc1NS(=O)(=O)c1cccnc1-c1ccc(-c2nnco2)cc1 [Zibotentan] + CCNC(=O)c1noc(-c2cc(C(C)C)c(O)cc2O)c1-c1ccc(CN2CCOCC2)cc1 [Luminespib] (partner 0.01 µM)
false (0)

Report whether reported relative viability is lower than 0.8 (strictly) for COc1nc(C)cnc1NS(=O)(=O)c1cccnc1-c1ccc(-c2nnco2)cc1 [Zibotentan] + N=C(N)NC(=N)NCCc1ccccc1 [Phenformin] (partner 250 µM)
true (1)
